# Run Description: self-splicing fitness, log relative to wild type (ln ratio); higher = more splicing; Tetrahymena group I intron in knt gene, E. coli kanamycin selection, DiMSum; sequences stand for … in CUCUCU…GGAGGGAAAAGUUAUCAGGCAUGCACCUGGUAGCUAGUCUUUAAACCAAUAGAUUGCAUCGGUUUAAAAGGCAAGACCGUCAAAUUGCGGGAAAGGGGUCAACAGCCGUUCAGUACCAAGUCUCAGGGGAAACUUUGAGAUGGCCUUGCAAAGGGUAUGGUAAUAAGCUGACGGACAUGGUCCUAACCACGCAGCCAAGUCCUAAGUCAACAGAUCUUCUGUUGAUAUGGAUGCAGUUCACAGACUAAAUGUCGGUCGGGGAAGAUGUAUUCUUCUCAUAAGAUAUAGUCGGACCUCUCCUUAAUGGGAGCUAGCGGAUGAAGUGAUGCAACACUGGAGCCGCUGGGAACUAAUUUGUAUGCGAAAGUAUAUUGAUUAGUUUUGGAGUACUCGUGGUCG;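 note: selection with 25 µg/mL kanamycin versus none on LB agar overnight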
# Measurement Setup: 30 °C
Metric: self-splicing fitness (ln)
Give your answer as a number; write no unit.

# lookup: self-splicing fitness (ln) of GAUGAGCAAUAUUACGUUAU
-3.98

Please give the measured self-splicing fitness (ln) for this sequence: CCAAAGCAAUAUUACGGAUU
-3.94

If you can, please state the reported self-splicing fitness (ln) value of GGCCAGCAAUAUUACGUAUA .
-3.92

Field request: self-splicing fitness (ln) | item: CUCUAGCAAUAUUACGGAAG
-2.95

Look at this sequence and give its reported self-splicing fitness (ln). UGCAAGCAAUAUUACGGGAA
-2.94

====

# Run Description: self-splicing fitness, log relative to wild type (ln ratio); higher = more splicing; Tetrahymena group I intron in knt gene, E. coli kanamycin selection, DiMSum; sequences stand for … in CUCUCU…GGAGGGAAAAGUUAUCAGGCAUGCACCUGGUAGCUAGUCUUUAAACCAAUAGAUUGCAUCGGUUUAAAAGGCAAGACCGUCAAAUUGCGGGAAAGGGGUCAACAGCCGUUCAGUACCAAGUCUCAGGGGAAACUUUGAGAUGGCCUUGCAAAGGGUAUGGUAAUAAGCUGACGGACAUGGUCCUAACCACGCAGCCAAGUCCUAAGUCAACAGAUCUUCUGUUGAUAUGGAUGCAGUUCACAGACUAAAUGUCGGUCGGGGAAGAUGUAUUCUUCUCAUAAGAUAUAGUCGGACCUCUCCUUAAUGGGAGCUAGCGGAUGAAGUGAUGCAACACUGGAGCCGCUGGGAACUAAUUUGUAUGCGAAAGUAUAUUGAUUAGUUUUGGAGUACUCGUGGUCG
# Measurement Setup: 30 °C
Label yes when self-splicing fitness (ln) is at or above -2; otherwise label no.

// inclusive: self-splicing fitness (ln) at least -2? input: AUCAAGCAAUAUUACGCUGA
no

Decide: is the reported value of self-splicing fitness (ln) for UAGAAGCAAUAUUACGCGAU equal to or greater than -2?
no

Would you say UGCUAGCAAUAUUACGGACA shows self-splicing fitness (ln) at minimum -2?
yes

Hi, just wondering whether UUGAAGCAAUAUUACGGGGA shows self-splicing fitness (ln) of -2 or higher.
yes

Check if self-splicing fitness (ln) >= -2 (inclusive). Item: AACGAGCAAUAUUACGACCA
no

Check the entry UUUGAGCAAUAUUACGUCCU : does self-splicing fitness (ln) equal or exceed -2?
no

Hi team, for GUGGAGCAAUAUUACGAUAU , is the recorded self-splicing fitness (ln) at or above -2?
yes

Determine whether this sequence has self-splicing fitness (ln) no lower than -2: AAUAAGCAAUAUUACGAAUG
yes

self-splicing fitness (ln) >= -2 for CCAGAGCAAUAUUACGCAUG ?
no

I'd appreciate it if you could say whether UCCAAGCAAUAUUACGACGC has self-splicing fitness (ln) at least equal to -2.
no

Decide: self-splicing fitness (ln) of GCACAGCAAUAUUACGCGAC >= -2?
yes

Could you verify whether the entry GCAAAGCAAUAUUACGUGGG shows self-splicing fitness (ln) of no less than -2?
no

Could you verify whether the entry UAAAAGCAAUAUUACGCAGA shows self-splicing fitness (ln) of no less than -2?
no

# bool: self-splicing fitness (ln) of GGCAAGCAAUAUUACGGUCU >= -2
yes

Please indicate if the recorded self-splicing fitness (ln) for UCCUAGCAAUAUUACGUACG meets or exceeds -2.
no

Check this sequence for self-splicing fitness (ln) at or above -2: GCUCAGCAAUAUUACGAUAC
yes
